# experimentalTarget: human FPRL2 (Homo sapiens)
# Sequence (P25089 whole entry): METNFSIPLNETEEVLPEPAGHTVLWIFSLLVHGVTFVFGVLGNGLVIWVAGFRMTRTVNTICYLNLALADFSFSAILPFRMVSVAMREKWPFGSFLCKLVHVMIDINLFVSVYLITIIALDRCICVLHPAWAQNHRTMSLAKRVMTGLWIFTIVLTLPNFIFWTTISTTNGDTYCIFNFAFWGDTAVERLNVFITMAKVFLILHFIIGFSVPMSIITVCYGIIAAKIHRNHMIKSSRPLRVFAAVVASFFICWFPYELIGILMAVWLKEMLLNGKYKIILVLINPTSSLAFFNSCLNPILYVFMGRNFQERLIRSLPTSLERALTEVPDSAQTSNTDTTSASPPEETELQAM
# assayDetails: Intracellular calcium measurements (FLIPR), agonistic activity in HEK293-hFPRL2-Gα16 cells
# measurementConditions: Fluo-4 calcium FLIPR, normalized to GLY14-Humanin 100 nM
pEC50: −log10 of the molar value.
parameter: pEC50

A: O=C(NCCC(=O)N1CCCC1)[C@H]1[C@H](C(=O)Nc2ccc(Br)cc2)[C@@H]2C=C[C@H]1C21CC1 (racemic)
B: O=C(NCCC(F)CN1CCCC1)[C@H]1[C@H](C(=O)Nc2ccc(Br)cc2)[C@@H]2C=C[C@H]1C21CC1 (stereo partly drawn)
C: CC(C)(C)OC(=O)N1CC(NC(=O)[C@H]2[C@H](C(=O)Nc3ccc(Br)cc3)[C@@H]3C=C[C@H]2C32CC2)C1 (racemic)
D: O=C(NCCN1CCNC1=O)[C@H]1[C@H](C(=O)Nc2ncc(Br)s2)[C@@H]2C=C[C@H]1C21CC1 (racemic)
## Input Order the above compounds by increasing pEC50. List labels; respect the requested ordering.
## Output D, B, A, C
(D: 5.06, B: 5.32, A: 5.53, C: 6.24)

A: O=C(NC1CC1)[C@H]1[C@H](C(=O)Nc2ccc(Br)cc2)[C@@H]2CC[C@H]1C21CC1 (racemic)
B: O=C(Nc1ccc(Br)cc1)C1C(C(=O)NC2CCCNC2)C2C=CC1C21CC1 (mixture of isomers)
## Input Just curious, which one has the larger pEC50 reading, A or B ? Respond using the label that marks the chosen record.
## Output B
(B: 6.13, A: 5.53)

a: CC1(C(=O)NCC2C(C(=O)Nc3ccc(Br)cc3)C3C=CC2C32CC2)CC1(Cl)Cl (mixture of isomers)
b: O=C(NCCCc1nc2ccccc2[nH]1)[C@H]1[C@H](C(=O)NCc2ccc(Br)cc2)[C@@H]2C=C[C@H]1C21CC1 (racemic)
c: NC(=O)CCNC(=O)[C@H]1[C@H](C(=O)Nc2ccc(Cl)nc2)[C@@H]2CC[C@H]1C21CC1
d: O=C(NCCO)[C@H]1[C@H](C(=O)Nc2ncc(Br)s2)[C@@H]2CC[C@H]1C21CC1
e: O=C(NCCCCN1CCCC1)[C@H]1[C@H](C(=O)Nc2nc(C(F)(F)F)cs2)[C@@H]2C=C[C@H]1C21CC1 (racemic)
## Input Order the records, beginning with the lowest pEC50 and ending with the highest. List labels; respect the requested ordering.
## Output d, c, a, e, b
(d: 4.67, c: 5.39, a: 5.59, e: 6.13, b: 7.33)
